Below is a list of entries, each paired with its recorded activation value.
Assay target: G-protein coupled receptor 151 (Homo sapiens)
Test: activators of human GPR151, primary screen, cell-based, PathHunter beta-arrestin, luminescence (AID 1508602);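 further: 0% = median of compound wells and 100% = cells with positive control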
Measurement conditions: PathHunter beta-arrestin GPR151 cells, at 11.2 µM, stronger effect = higher value
Out of some 650,000 compounds screened, about 6,800 (1%) were called active. The list comes from a sample in which actives are over-represented; it also holds close analogues and randomly drawn compounds.
Report the figure in % without appending any unit label.

Request: Tell us which activation value is on record for "Cc1[nH]n(-c2nc3c(c(=O)[nH]2)CCCC3)c(=O)c1CCO"
Result: -1.77

Request: Tell us which activation value is on record for "COC(=O)c1cc(CNC(=O)c2cc3ncccn3n2)cc(NC(=O)Cc2ccsc2)c1"
Result: -0.0871

Request: Tell us which activation value is on record for CSC1=C(C#N)C(c2ccc(Cl)cc2Cl)CC(=O)N1 (stereo unspecified)
Result: -1.96

Request: Tell us which activation value is on record for "COc1ccc(NC(=O)CSc2nc3n[nH]c(C)c3c(=N)n2-c2ccccc2Cl)c(OC)c1"
Result: 0.84

Request: Tell us which activation value is on record for "Brc1ccc(-c2cc(-c3ccccc3)c3cc(Br)ccc3n2)cc1"
Result: 1.18

Request: Tell us which activation value is on record for "CCCCCC(=O)N/N=C(\C)c1ccc(O)cc1"
Result: -1.26

Request: Tell us which activation value is on record for "CCOC(=O)C1=C(c2ccccc2)S/C(=C2/C(=S)C(C)(C)N(C(C)=O)c3cc(C)c(C)cc32)S1"
Result: 1.9

---

Assay target: G-protein coupled receptor 151 (Homo sapiens)
Test: activators of human GPR151, primary screen, cell-based, PathHunter beta-arrestin, luminescence (AID 1508602);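 further: 0% = median of compound wells and 100% = cells with positive control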
Measurement conditions: PathHunter beta-arrestin GPR151 cells, at 11.2 µM
Hit rate of the full screen: of about 650,000 compounds, about 6,800 (1%) were called active. Rule as the data show it: active = activation above about 4.9%; inactive = the rest. Many of the other results were omitted from the sample, so actives are more common in it than they were.
Outcome field: choose from y = active, n = inactive

O=C(CNC(=S)N(Cc1cccs1)C1CCCCC1)NCCC1=CCCCC1
n

Request: Entry "O=C(Nc1ccc(Br)cc1Cl)N1CCN(c2ncccn2)CC1" : call = ?
Result: n

Request: Entry "CCOCCc1nnc(NC(=O)CC(C)(C)C)s1" : call = ?
Result: n

Request: Entry CC(=O)Nc1nnc(CCOCC(C)OCCc2nnc(NC(C)=O)s2)s1 (stereo unspecified) : call = ?
Result: y

Request: Entry "COc1cccc(CCNC(=O)CCc2nnc(COc3ccccc3)o2)c1" : call = ?
Result: n

Request: Entry "O=C(Cc1cccs1)NCCC1=CCCCC1" : call = ?
Result: y

---

Assay target: G-protein coupled receptor 151 (Homo sapiens) (UniProt Q8TDV0)
Sequence (Q8TDV0 whole entry, looked up): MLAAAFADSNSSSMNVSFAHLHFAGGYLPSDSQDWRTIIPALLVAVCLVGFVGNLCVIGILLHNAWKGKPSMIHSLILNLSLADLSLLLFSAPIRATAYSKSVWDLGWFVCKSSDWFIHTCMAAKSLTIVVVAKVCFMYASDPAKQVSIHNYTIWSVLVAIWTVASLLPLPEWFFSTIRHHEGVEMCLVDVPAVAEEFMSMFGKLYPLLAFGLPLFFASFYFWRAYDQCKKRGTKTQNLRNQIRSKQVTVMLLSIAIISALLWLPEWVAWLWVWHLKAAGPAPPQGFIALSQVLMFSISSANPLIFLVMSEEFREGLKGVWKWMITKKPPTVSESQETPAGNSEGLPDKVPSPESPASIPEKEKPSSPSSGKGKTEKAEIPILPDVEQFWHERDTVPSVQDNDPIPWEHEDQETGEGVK
Test: activators of human GPR151, primary screen, cell-based, PathHunter beta-arrestin, luminescence (AID 1508602);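 further: 0% = median of compound wells and 100% = cells with positive control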
Measurement conditions: PathHunter beta-arrestin GPR151 cells, at 11.2 µM
Screen size: about 650,000 compounds; about 6,800 (1%) were called active. Rule as the data show it: active = activation above about 4.9%; inactive = the rest. What follows is part of a selection rich in actives, with near analogues and random picks from the rest.
Outcome field: choose from 1.0 (active), 0.0 (inactive)

Please review the following examples before continuing.
c1ccc(-c2ccccc2OCCNCCN2CCOCC2)cc1
0.0
O=C(Cn1c(NCCCO)nc2ccccc21)c1ccccc1
0.0
COc1cccc(C(=O)Nc2sc3c(c2C(N)=O)CCCCCC3)c1
1.0
CCn1c(NCCO)nc2ccccc21
0.0
Cc1ccc(C(C)C)c(OCCN2CCNCC2)c1
0.0
Cc1c(C(=O)Oc2ccccc2)sc2ncn(Cc3ccccc3F)c(=O)c12
0.0
CC(C)Oc1ccc(C(=O)Nc2sc3c(c2C(N)=O)CCCC3)cc1
0.0
CNC(=O)c1c(NC(=O)c2cccc(OC)c2)sc2c1CCC2
0.0

Request: Entry "Cc1ccc(C)c(NC(=O)CN2CCOCC2)c1" : call = ?
Result: 0.0

Request: Entry "O=[N+]([O-])c1ccc(-n2c(-c3ccccc3)nnc2-c2ccccc2)cc1" : call = ?
Result: 0.0

Request: Entry "COc1cccc(/C=C(/C#N)C(=O)Nc2ccc(F)cc2)c1O" : call = ?
Result: 0.0

Request: Entry "C=CCc1cc(C)ccc1OCCCn1ccnc1" : call = ?
Result: 0.0

---

Assay target: G-protein coupled receptor 151 (Homo sapiens)
Test: activators of human GPR151, primary screen, cell-based, PathHunter beta-arrestin, luminescence (AID 1508602);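 further: 0% = median of compound wells and 100% = cells with positive control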
Measurement conditions: PathHunter beta-arrestin GPR151 cells, at 11.2 µM, stronger effect = higher value
About 6,800 (1%) of roughly 650,000 compounds were called active. This is one part of a sample in which actives are shown more often than they occur.
Assay readout: activation (%)
Report the figure in % without appending any unit label.

Request: Tell us which activation value is on record for "COc1ccccc1N1CCN(c2ncnc3sc(C(=O)Nc4ccc5c(c4)OCCO5)c(C)c23)CC1"
Result: -0.8

Request: Tell us which activation value is on record for "COc1cc(CO)cc(Cl)c1OCc1ccccc1"
Result: 0.149

Request: Tell us which activation value is on record for "O=C(NC(=S)Nc1ccc(-c2nc3ncccc3o2)cc1)c1ccc(I)cc1"
Result: -0.544

Request: Tell us which activation value is on record for "CCOc1c(Cl)cc(CNCc2ccccc2)cc1OC"
Result: 5.18

Request: Tell us which activation value is on record for "Cc1cc2nc(-c3cccc(NC(=O)COc4ccc(Br)cc4)c3)oc2cc1C"
Result: -0.225

Request: Tell us which activation value is on record for "CC(C)c1ccc(NC(=O)/C=C/c2ccccc2Cl)cc1"
Result: 1.13

Request: Tell us which activation value is on record for "O=C(COc1ccc([N+](=O)[O-])cc1)Nc1ccc2oc(-c3cccc(F)c3)nc2c1"
Result: 6.49

Request: Tell us which activation value is on record for CC(C)CC(NS(=O)(=O)c1ccc2c(c1)oc(=O)n2C)C(=O)N1CCC(C)CC1 (centres undefined)
Result: -0.109

Request: Tell us which activation value is on record for "NC(=O)C12CC3CC(CC(C3)C1)C2"
Result: -0.0547

Request: Tell us which activation value is on record for "COc1cccc(NC(=O)CN(C)S(=O)(=O)c2ccc3c(c2)SCC(=O)N3)c1"
Result: 5.58

Request: Tell us which activation value is on record for CC(C)(C)C1CCC(=NNC(=O)C(=O)NCCc2ccccc2)CC1 (centres undefined)
Result: 6.69

---

Assay target: G-protein coupled receptor 151 (Homo sapiens) (UniProt Q8TDV0)
Test: activators of human GPR151, primary screen, cell-based, PathHunter beta-arrestin, luminescence (AID 1508602);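 further: 0% = median of compound wells and 100% = cells with positive control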
Measurement conditions: PathHunter beta-arrestin GPR151 cells, at 11.2 µM
The campaign covered roughly 650,000 compounds. About 6,800 (1%) were called active. No stated cut-off is given here; in the data, active means activation above about 4.9%; inactive means the rest. Many of the other results were omitted from the sample, so actives are more common in it than they were.
Outcome field: choose from active, inactive

Please review the following examples before continuing.
O=C(CSc1nnnn1-c1ccc2c(c1)OCCO2)NNC(=O)c1ccco1
inactive
O=C(NC1CCN(Cc2ccccc2)CC1)c1ccc(-c2ccccc2)s1
inactive
O=C(NCCO)c1cnc(NC2CCN(Cc3ccccc3)CC2)s1
active
CCOCCn1c(=O)c2c(nc3n2CCCN3c2ccc(Br)cc2)n(C)c1=O
inactive
CCN(CC)S(=O)(=O)c1ccc(N2CCCC2)c(C(=O)O)c1
inactive
O=C(Nc1ccc(N2CCCCC2)c(Cl)c1)c1ccc([N+](=O)[O-])o1
inactive

Request: Entry "CC(C)Cn1c(=O)c2c(nc3n2CCCN3c2ccc(Br)cc2)n(C)c1=O" : call = ?
Result: inactive

Request: Entry "Cc1ccccc1Cn1cc(SCC(=O)N2CCCC2)c2ccccc21" : call = ?
Result: inactive

Request: Entry "CCc1cc2c(=O)c(-c3ccc4c(c3)OCCCO4)coc2cc1OC" : call = ?
Result: inactive

Request: Entry "Nc1ccc(C(=O)Nc2nc3ccc(C(=O)N4CCCCC4)cc3s2)cc1" : call = ?
Result: inactive

Request: Entry "Cc1ccc(-c2nc3ccc(C(=O)NCCC4=CCCCC4)cc3nc2-c2ccc(C)cc2)cc1" : call = ?
Result: inactive

Request: Entry "CCc1cc2c(=O)c(-c3ccc4c(c3)OCCCO4)coc2cc1OC(=O)N1CCOCC1" : call = ?
Result: active

Request: Entry "Cn1c(=NC(=O)CN2C(=O)CCC2=O)sc2cc([N+](=O)[O-])ccc21" : call = ?
Result: inactive

Request: Entry "CCC(CC)NCc1cc(OC)c(OC)cc1Br" : call = ?
Result: inactive

Request: Entry "CCCc1cc(=O)[nH]c2nnc(SCC(=O)Nc3cc(OC)ccc3OC)n12" : call = ?
Result: inactive

Request: Entry "O=C1CCN(Cc2cc(F)cc(F)c2)CCN1Cc1ccc(Cl)s1" : call = ?
Result: inactive

Request: Entry "COc1ccc(OC)c(NC(=O)CSc2nnc3[nH]c(=O)c(C)c(C)n23)c1" : call = ?
Result: active

Request: Entry "O=C(Cc1cccs1)NCCS(=O)(=O)N1CCN(CCc2ccccc2)CC1" : call = ?
Result: inactive

Request: Entry "CCc1cc2cc(OC)ccc2nc1SCC(=O)Nc1nccs1" : call = ?
Result: inactive

Request: Entry "COc1ccc(Nc2nc(-c3ccc(F)cc3)cs2)c(OC)c1" : call = ?
Result: active

Request: Entry "O=S(=O)(c1cccs1)N1CCc2nc(-c3cccnc3)nc(N3CCCCC3)c2C1" : call = ?
Result: inactive

Request: Entry "CC(=O)Cn1c(=O)c2c(nc3n2CCCN3c2ccc(Br)cc2)n(C)c1=O" : call = ?
Result: active
